// protein stability index lookup, one value per entry
B1: ATL3 (parent)
chain: EKALASILLQDHIRDLDVVVVSVA

- Variants of: B1
- protocol: protein stability index of a GFP-peptide fusion (GPS, HEK-293T) (PSI 1-6); higher = more stable;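 also: lentivirally expressed fusions sorted by FACS into six bins by GFP to DsRed ratio, PSI derived from sequencing read proportions per bin multiplied by bin number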
- experimental-conditions: c terminus: a fixed tail appended

Known results for variants:
{"columns": ["construct-sequence", "protein stability index"],
 "data": [
  ["EKALASIGLQDHIRDLDVVVVSVA", 2.62],
  ["EKAKASILLQDHIRDLDVVVVSVA", 3.04],
  ["EKALWSILLQDHIRDLDVVVVSVA", 2.08],
  ["EKACASILLQDHIRDLDVVVVSVA", 1.47],
  ["EKALASILLQDHILDLDVVVVSVA", 3.36]
]}

## Task Bench note: what protein stability index did EKALASILLQDHIRDQDVVVVSVA show?
## Result 1.37

## Task Bench note: what protein stability index did EKAPASILLQDHIRDLDVVVVSVA show?
## Result 1.25

## Task Bench note: what protein stability index did EKALASILLQDHIRDLDVVVVRVA show?
## Result 2.97

## Task Bench note: what protein stability index did EKALASILLQDHIRDLDVVVNSVA show?
## Result 2.16

## Task Bench note: what protein stability index did EKALASILLQDHIRDLIVVVVSVA show?
## Result 1.36
